Reference source for all entries: PubChem BioAssay (NCI)

System: SF-268 CNS
procedure.details: NCI-60 one-dose screen, 48 h
test.conditions: 10 µM unless noted
The panel holds about 83,000 compounds, 20% with a hit somewhere; the sample as a whole holds those more often. Calls of active or inactive are those of the source. Rule for the calls: active = growth percent below 10; inactive = the rest.
I would appreciate it if you answered using one of these outcomes: active, inactive

Completed entries (count: 6):
COc1cc(C2C(C#N)=C(N)OC3=C2C(=O)c2ccccc2C3=O)cc(OC)c1O (stereo not given)	inactive
O=c1c(-c2nc3ccccc3[nH]2)cc2ccccc2n1Cc1cn(Cc2ccc(N3CCOCC3)cc2)nn1	inactive
CCN1C(=O)N(CC)C2C1NC(=S)N2/N=C/C=C/c1ccccc1OC (stereo not given)	inactive
CSc1nc2c(c(=O)n1C)N=C1c3ccccc3C(=O)C1C(c1ccccc1)N2 (stereo not given)	inactive
COc1cc(OC)cc(N2C(=O)N(Cc3ccc(C(C)(C)C)cc3)c3ccccc3S2(=O)=O)c1	inactive
O=C(c1ccccc1)N(C(=S)NCCc1ccc(Cl)cc1)c1ccccc1	inactive

For the next question, use this compound.
Which outcome did this test record for the compound `O=C(COc1cc(O)c2c(=O)cc(-c3ccccc3)oc2c1)Nc1ccccc1C(F)(F)F` ?
inactive

* * *

System: 786-0 renal
procedure.details: NCI-60 one-dose screen, 48 h (100 = growth as untreated, 0 = no growth, -100 = all killed)
test.conditions: 10 µM unless noted
The panel holds about 83,000 compounds, 20% with a hit somewhere; the sample as a whole holds those more often.
A collection of compounds and their measured growth
Number only, in %; omit the unit.

Worked examples, 10 compounds total:
CCOc1ccc(Nc2ccnc3cc(Cl)ccc23)cc1	19.1
COc1ccc(/C(C#N)=C/c2nc3c(N4CCOCC4)nc(Cl)nc3n2C)cc1OC	-61.5
Cc1cc(Br)c(N)c(Br)c1	93.3
COc1cc(CNC(=O)c2ccsc2Nc2ccnc(C(F)(F)F)c2)ccc1O	98.1
COC(=O)/C(CCC=C(C)C)=C1\[C@@H](OC(C)=O)C[C@@]2(C)[C@H]1CC(=O)N[C@H]1[C@@]3(C)CCNC(=O)[C@@H](C)[C@@H]3CC[C@@]12C	96.2
CCCCCCCCCCOC(=O)c1ccccc1C(=O)OCCCC	106
O=Cc1c(OCc2cnnn2CC(=O)Nc2ccc(Cl)cc2)ccc2ccccc12	100
CCn1c(SCC(=O)Nc2cc(C(F)(F)F)ccc2Cl)nc2ccccc2c1=O	56.4
O=C(NCc1ccco1)C1CN(c2ccc(Cl)cc2)N(c2ccc(Cl)cc2)C1=O (stereo unspecified)	37.6
CN1C(=O)N(C)C2C1NN=c1s/c(=C\c3ccc(Cl)cc3Cl)c(=O)n12 (stereo unspecified)	24

Entry under review: `Cc1cccc2c(=O)c3c(sc12)c(N1CCNCC1)nc1ccccc13` . Reported growth?
78.1

Entry under review: `O=c1oc2ccc(Br)cc2c(=O)n1-c1ccc(I)cc1F` . Reported growth?
2.68

Entry under review: `CN(CCc1ccccc1)C(=S)N(C(=O)c1ccc([N+](=O)[O-])cc1)c1ccc(Cl)cc1` . Reported growth?
88

Entry under review: `NCCOc1ncccc1/C=C1\c2ccccc2-c2ccc(F)cc21` . Reported growth?
6.26

Entry under review: `Nc1ccc(-c2nc3cc(Oc4ccc(Oc5ccc6[nH]c(-c7ccc(N)cc7)nc6c5)cc4)ccc3[nH]2)cc1` . Reported growth?
92

Entry under review: Nc1nc(N)c2c(n1)NC1(C=C(O)c3ccccc31)C1=C(N2)c2ccccc2C1=O (stereo unspecified) . Reported growth?
104

* * *

A collection of compounds and their measured growth
System: CAKI-1 renal
procedure.details: NCI-60 one-dose screen, 48 h (100 = growth as untreated, 0 = no growth, -100 = all killed)
test.conditions: 10 µM unless noted
The panel holds about 83,000 compounds, 20% with a hit somewhere; the sample as a whole holds those more often.
Number only, in %; omit the unit.

COc1cc(/C=C2\Oc3cc(OCCCN4CCCC4)ccc3C2=O)cc(OC)c1	58.6

Entry under review: `Cc1cc(Br)c(N)c(Br)c1` . Reported growth?
98

Entry under review: O=C(CN1C=NC2C(N3CCOCC3)=NC=NC21)c1cccc2ccccc12 (centres undefined) . Reported growth?
73.1

Entry under review: `COc1ccc(C2=C(c3cccc(OC)c3)C(=O)c3ccc(C)nc3C2=O)cc1` . Reported growth?
34.2

* * *

System: MDA-MB-435 melanoma
procedure.details: NCI-60 one-dose screen, 48 h
test.conditions: 10 µM unless noted
Compounds without any hit were thinned out: in the full panel of roughly 83,000, 20% have a hit. The source made the active and inactive calls. Rule for the calls: active = growth percent below 10; inactive = the rest.
I would appreciate it if you answered using one of these outcomes: true for active, false for inactive

COC(=O)/C(CCC=C(C)C)=C1\[C@@H](OC(C)=O)C[C@@]2(C)[C@H]1CC(=O)N[C@H]1[C@@]3(C)CCNC(=O)[C@@H](C)[C@@H]3CC[C@@]12C	false
O=C(NC1CCCCC1)C(c1cccs1)N(CCc1ccccc1)C(=O)c1ccco1 (centres undefined)	false
NC1(N2SC(S)=C3CCCC=C32)CCCCC1	false
CN(C)CCNc1cc(-c2ccccc2)nc2ccccc12	true
CCOC(=O)c1c(C=O)nc2ccccc2c1/C=C/c1ccc(Cl)cc1	false

Which outcome did this test record for the compound `CCN(CC)CCCNc1ccnc2cc3ccccc3cc12` ?
false

Which outcome did this test record for the compound `COc1ccc(N)c(-c2cc3c(c4c2[nH]c2ccc(OC)cc24)CCCC3)c1` ?
false

Which outcome did this test record for the compound `O=C(CSc1ncccc1C(=O)O)Nc1ccc(Oc2ccccc2)cc1` ?
false

Which outcome did this test record for the compound `CCOC(=O)c1cnc2c(C)cccc2c1Nc1ccc(C(C)=O)cc1` ?
true

Which outcome did this test record for the compound `Cn1cc(-c2ccc3ncc(-c4ccc(CC(=O)Nc5cc(C(C)(C)C)no5)cc4)nc3c2)cn1` ?
false

* * *

System: OVCAR-4 ovarian
procedure.details: NCI-60 one-dose screen, 48 h (100 = growth as untreated, 0 = no growth, -100 = all killed)
test.conditions: 10 µM unless noted
Compounds without any hit were thinned out: in the full panel of roughly 83,000, 20% have a hit.
measurement.type: growth (%)
Number only, in %; omit the unit.

CSc1nc2c(c(=O)[nH]1)N=C1c3ccccc3C(=O)C1C(c1ccc(F)cc1)N2 (configuration not stated)	41.2
O=C(NC(=S)Nc1cccc(NC(=S)NC(=O)c2ccccc2)c1)c1ccccc1	16.4
Cn1nc(C(F)(F)F)c(-c2ccc(Cl)c(C(F)(F)F)c2)c1-c1ccc(OCc2ccc(Cl)cc2)cc1O	30.2
O=c1oc2ccc(Cl)cc2c(=O)n1-c1ccc(F)cc1F	18.5
Clc1ccc(-c2nnc(COc3ccc(C4=NNC(c5ccco5)C4)cc3)o2)cc1 (configuration not stated)	77
COC(=O)C1(C)COP(=O)(Nc2ccc(OC)cc2)OC1 (configuration not stated)	108

--- query ---
Entry under review: `CC[C@H](C)[C@@H](C(=O)OC)n1cc(CNC(=O)[C@@H](Cc2ccccc2)NC(=O)OCc2ccccc2)nn1` . Reported growth?
105

* * *

Tested on: KM12 colon
procedure.details: NCI-60 one-dose screen, 48 h (100 = growth as untreated, 0 = no growth, -100 = all killed)
test.conditions: 10 µM unless noted
This is part of a sample that, as a whole, favours compounds with a hit. Of some 83,000 tested, about 20% had one in any assay.
A collection of molecules and their measured growth
Number only, in %; omit the unit.

Worked examples, 3 molecules total:
O=C(c1nc2ccccc2[nH]1)C1C(c2cccc([N+](=O)[O-])c2)C2CC3CCCCC3N2[C@@]12C(=O)Nc1cc(Cl)ccc12 (some centres undefined)	32.5
Cc1ccc(S(=O)(=O)c2c(COC(=O)c3cccc(C)c3)c(-c3ccccc3)nn2C)cc1	16.3
COc1ccc(CN2CCCC(C(=O)c3ccc(C(F)(F)F)cc3)C2)c(O)c1 (centres undefined)	18.5

--- query ---
Entry under review: `Nc1nc(-c2cnccn2)nn1-c1nc2ccccc2s1` . Reported growth?
101

* * *

A collection of compounds and their measured growth
System: T-47D breast
procedure.details: NCI-60 one-dose screen, 48 h (100 = growth as untreated, 0 = no growth, -100 = all killed)
test.conditions: 10 µM unless noted
About 83,000 compounds went through this panel and 20% of them were active in at least one assay; those are over-represented in the sample as a whole. The source made the active and inactive calls. Rule for the calls: active = growth percent below 10; inactive = the rest.

O=[N+]([O-])c1cc2c(ccc3occc32)o1	95.1% (inactive)
CCOC(=O)C1=CN(C)C=C(C(=O)OCC)C1c1cc(Br)c(OCC)c(OC)c1	74.9% (inactive)
O=S(=O)(c1ccccc1)n1cc2c(c1-c1ccccc1)CCc1sc(Nc3ccccc3)nc1-2	64.1% (inactive)
COc1cc(C(C)n2cc(-c3ccccc3)nn2)ccc1OC1CCCCC1 (configuration not stated)	58.8% (inactive)

Entry under review: `O=C(Nc1ccc(N2CCNCC2)cc1)c1[nH]ncc1Nc1ncnc2sc3c(c12)CCC3` . Reported growth?
20.4% (inactive)

Entry under review: `Nc1cccc(Nc2cc(S(=O)(=O)O)c(N)c3c2C(=O)c2ccccc2C3=O)c1` . Reported growth?
93.1% (inactive)

Entry under review: `Cc1ccc(NC2=CC(=O)C(=O)c3ccccc32)c(C)c1` . Reported growth?
22.9% (inactive)
